In this section, each of the molecules is paired with its reported half-life.
Test: Half life in human liver microsomes in absence of NADPH by LC-MS/MS analysis
Type: ADME, microsome
endpointLabel: half-life

1. CCCCc1ccc(-c2nc(C)c(/C(C)=N/NC(=N)N)s2)cc1 = > 4 h
2. Cc1nc(-c2ccc(-c3ccccc3)cc2)sc1-c1ccnc(NC(=N)N2CCN(C)CC2)n1 = > 4 h

* * *

Tested on: Staphylococcus aureus
Test: Antibacterial activity against methicillin-resistant Staphylococcus aureus 2658 RCMB up to 20 hrs by broth microdilution assay
Format: functional
endpointLabel: MIC

1. Cc1nc(-c2ccc(-c3ccccc3)cc2)sc1-c1ccnc(NN2CCOCC2)n1 = 3.12 µg/mL
2. CNC(=N)Nc1nccc(-c2sc(-c3ccc(-c4ccccc4)cc3)nc2C)n1 = 1.56 µg/mL
3. Cc1nc(-c2ccc(-c3ccccc3)cc2)sc1-c1ccncn1 = > 25 µg/mL
4. Cc1nc(-c2ccc(-c3ccccc3)cc2)sc1-c1ccnc(NC(=N)c2ccccn2)n1 = > 25 µg/mL
5. Cc1nc(-c2ccc(-c3ccccc3)cc2)sc1-c1ccnc(NC(=N)c2cccnc2)n1 = > 25 µg/mL
6. C/C(=N\NC(=N)N)c1sc(-c2ccc(-c3ccccc3)cc2)nc1C = 1.6 to 2.4 µg/mL
7. Cc1nc(-c2ccc(-c3ccccc3)cc2)sc1-c1ccnc(-c2cccnc2)n1 = > 25 µg/mL
8. CNc1nccc(-c2sc(-c3ccc(-c4ccccc4)cc3)nc2C)n1 = 12.5 µg/mL
9. Cc1nc(-c2ccc(-c3ccccc3)cc2)sc1-c1ccnc(NN)n1 = 1.56 µg/mL
10. Cc1nc(-c2ccc(-c3ccccc3)cc2)sc1-c1ccnc(-c2ccccn2)n1 = > 25 µg/mL
